Reference source: ChEMBL document CHEMBL1201862

Kindly state IC50 for each of the entries shown.
Molecular target: Sentrin-specific protease 8 (Homo sapiens)
Sequence (Q96LD8 whole entry): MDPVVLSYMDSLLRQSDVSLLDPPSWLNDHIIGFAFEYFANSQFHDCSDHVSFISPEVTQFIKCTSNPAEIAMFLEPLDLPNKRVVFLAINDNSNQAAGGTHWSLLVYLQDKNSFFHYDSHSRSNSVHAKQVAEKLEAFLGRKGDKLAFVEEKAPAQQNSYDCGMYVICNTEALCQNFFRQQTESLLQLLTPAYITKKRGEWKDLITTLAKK
Type: functional
Active and inactive are the calls of the source.

# IC50 lookup, item "COc1cc(NCCCCCCN)c2ncccc2c1OC"
0.208 µM (active)

So what does the record say about IC50 for "O=C1CC(N2CCOCC2)=NN1c1ccc([N+](=O)[O-])cc1" ?
11.7 µM (active)

Record request: IC50 value, item "Cc1n[nH]c(O)c1C(c1ccc(-c2cccc(Cl)c2)o1)c1c(C)n[nH]c1O"
2.19 µM (active)

Name the recorded IC50 for "CCOc1ccc(NC(S)=Nc2ccc3nsnc3c2)cc1" .
5.72 µM (active)

---

target: Rac GTPase-activating protein 1 (Homo sapiens, UniProt Q9H0H5); assay: MgcRacGAP GTPase-activating activity inhibitors, confirmation, biochemical, ADP Hunter fluorescence, primary and confirmatory (AID 624330); format: functional
Sequence (Q9H0H5 whole entry): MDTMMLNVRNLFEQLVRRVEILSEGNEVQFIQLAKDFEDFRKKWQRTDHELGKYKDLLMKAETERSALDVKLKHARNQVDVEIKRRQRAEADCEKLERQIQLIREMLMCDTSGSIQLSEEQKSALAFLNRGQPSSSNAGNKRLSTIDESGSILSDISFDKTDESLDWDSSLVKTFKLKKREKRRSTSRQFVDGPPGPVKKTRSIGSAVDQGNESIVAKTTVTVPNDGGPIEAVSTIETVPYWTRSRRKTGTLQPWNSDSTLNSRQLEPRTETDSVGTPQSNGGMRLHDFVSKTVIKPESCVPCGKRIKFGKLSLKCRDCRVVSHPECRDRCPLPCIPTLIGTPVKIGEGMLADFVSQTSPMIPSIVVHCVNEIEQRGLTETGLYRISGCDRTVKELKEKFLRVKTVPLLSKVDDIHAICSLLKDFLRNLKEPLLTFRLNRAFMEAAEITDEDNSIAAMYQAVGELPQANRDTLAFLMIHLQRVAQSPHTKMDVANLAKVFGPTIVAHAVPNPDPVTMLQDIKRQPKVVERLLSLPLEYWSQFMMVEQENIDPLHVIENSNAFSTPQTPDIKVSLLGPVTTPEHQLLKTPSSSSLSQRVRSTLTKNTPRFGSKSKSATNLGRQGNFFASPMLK
Calls of active or inactive are those of the source.
readout: IC50

What IC50 appears in the records for this compound with Rac GTPase-activating protein 1 (Homo sapiens, UniProt Q9H0H5)? "O=C(Cn1cnc([N+](=O)[O-])n1)N/N=C/c1ccc(O)cc1O"
107 µM (active)

Notebook entry, Rac GTPase-activating protein 1 (Homo sapiens, UniProt Q9H0H5) assay: IC50 of "CN1CCN(c2ccc(N)c(N3CCN(C)CC3)c2)CC1" = ?
33.3 µM (active)

API: value(readout=IC50, system=Rac GTPase-activating protein 1 (Homo sapiens, UniProt Q9H0H5)) for record Cc1c(NC(=O)CN2CC(C)OC(C)C2)c(=O)n(-c2ccccc2)n1C (centres undefined)
83.1 µM (active)

Value wanted: IC50 (Rac GTPase-activating protein 1 (Homo sapiens, UniProt Q9H0H5)) of entry CCC1(c2ccccc2)NC(=O)N(CC(=O)Nc2ccc(N3CCCC3)cc2C)C1=O (centres undefined)
112 µM (active)

Which IC50 is reported with Rac GTPase-activating protein 1 (Homo sapiens, UniProt Q9H0H5) for this entry: O=C(Nc1ccccc1Cl)/C(Cl)=C(\Cl)[S+]([O-])c1ccccc1 (centres undefined) ?
22.8 µM (active)

Kindly state the measured IC50 obtained for "CC(C)COc1ccc(N)cc1OCC(C)C" with Rac GTPase-activating protein 1 (Homo sapiens, UniProt Q9H0H5).
55.3 µM (active)

Which IC50 is reported with Rac GTPase-activating protein 1 (Homo sapiens, UniProt Q9H0H5) for this entry: "O=C(c1cc(C2CC2)nn1-c1ccccc1)N1CCN(c2ccc(O)cc2)CC1" ?
37.9 µM (active)

Give IC50 (Rac GTPase-activating protein 1 (Homo sapiens, UniProt Q9H0H5)) of the following compound: "N#C/C(=C/c1ccc(O)c(O)c1)C(=O)NCc1ccc(Cl)cc1"
34.5 µM (active)

Lab request: please report IC50 under test system Rac GTPase-activating protein 1 (Homo sapiens, UniProt Q9H0H5) for "CC(C)/N=c1\scc(-c2ccco2)n1/N=C/c1ccc(O)c(O)c1"
56.3 µM (active)

Find the measured IC50: item "O=C(NC(=S)Nc1cccc2c(O)cccc12)c1ccco1" , target or system Rac GTPase-activating protein 1 (Homo sapiens, UniProt Q9H0H5).
32.3 µM (active)

What is its IC50 for Rac GTPase-activating protein 1 (Homo sapiens, UniProt Q9H0H5)? Entry: O=C(C1CCCN(Cc2cccnc2)C1)N1CCCCC1 (centres undefined)
74 µM (active)

Param readout= IC50; system= Rac GTPase-activating protein 1 (Homo sapiens, UniProt Q9H0H5); entry= "Cc1ccc(OCCCN2CCCC2)c(C)c1" ; returns value.
105 µM (active)

Recorded IC50 for "N#CC(C#N)=C1C=CC=CN1/C(=C\c1ccco1)C(=O)c1ccc(Cl)cc1" with Rac GTPase-activating protein 1 (Homo sapiens, UniProt Q9H0H5), please?
121 µM (active)

Provide value of IC50 for this record tested with Rac GTPase-activating protein 1 (Homo sapiens, UniProt Q9H0H5): CCN(CCNCC(O)COc1ccccc1C(C)C)c1cccc(C)c1 (centres undefined)
66.7 µM (active)

---

test: cells; assay type: functional, cell-based
Active and inactive are the calls of the source.
readout: EC50

Need EC50 of "COc1ccccc1OCc1nnc(SCC(=O)NCc2ccco2)n1-c1ccccc1" , thanks.
> 350 µM (not active)

Value lookup for EC50; key = "O=[N+]([O-])c1ccc(/N=C/c2ccc(Br)c([N+](=O)[O-])c2)cc1"
> 350 µM (not active)

Data request, read-out EC50, for "COc1ccc(/C=N/NC(=O)c2ccoc2C)cc1O"
> 350 µM (not active)

Can you share its EC50? I mean this molecule: "C=CCc1cccc(/C=N/NC(=O)c2ccc3[nH]cnc3c2)c1O"
11.8 µM (active)

Which EC50 value is on record for "C=CCOc1ccc(/C=C2\SC(N)=NC2=O)cc1OC" ?
> 350 µM (not active)

---

target: Heat shock factor protein 1 (Mus musculus, UniProt P38532); experiment: inhibition of MG132-induced HSE-luciferase signal, confirmation, cell-based, NIH3T3, luminescence, dose retest (AID 2382); assay type: functional;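 note: NIH3T3 fibroblasts with HSF1-driven luciferase reporter stressed by proteasome inhibitor MG132; luminescence from HSF1-driven luciferase expression after 8 hours of MG132 stress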
Sequence (P38532 whole entry): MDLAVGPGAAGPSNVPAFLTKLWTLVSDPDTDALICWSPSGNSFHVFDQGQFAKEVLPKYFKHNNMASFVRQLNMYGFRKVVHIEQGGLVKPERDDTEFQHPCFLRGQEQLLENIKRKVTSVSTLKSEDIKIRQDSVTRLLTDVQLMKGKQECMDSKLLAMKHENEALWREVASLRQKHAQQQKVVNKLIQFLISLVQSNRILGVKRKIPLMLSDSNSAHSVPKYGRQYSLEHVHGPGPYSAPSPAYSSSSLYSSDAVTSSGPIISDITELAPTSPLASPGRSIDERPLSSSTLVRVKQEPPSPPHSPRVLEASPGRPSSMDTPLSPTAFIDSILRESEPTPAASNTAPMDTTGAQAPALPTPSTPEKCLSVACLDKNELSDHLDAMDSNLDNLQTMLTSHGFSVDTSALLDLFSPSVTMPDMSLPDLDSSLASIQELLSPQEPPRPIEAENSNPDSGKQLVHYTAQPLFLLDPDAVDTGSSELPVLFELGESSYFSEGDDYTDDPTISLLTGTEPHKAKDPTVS
Calls of active or inactive are those of the source.
readout: EC50

Which EC50 value belongs to "N#Cc1cccn1-c1nccs1" ?
> 195 µM (not active)

# get_value(readout='EC50', item= "CCOC(=O)c1cc(CC)sc1NC=C1C(=O)CCCC1=O" )
> 195 µM (not active)

What value of EC50 has been reported for the following molecule? "O=c1c2c3c(sc2nc(NCCOCCO)n1Cc1ccco1)CCCCC3"
> 195 µM (not active)

So what's the measured EC50 for this one? "CSc1nccn1C(=O)c1ccccc1[N+](=O)[O-]"
> 195 µM (not active)

I'd like to know its EC50. The molecule in question is "CCCCn1c(N(CCOC(C)=O)C(C)=O)nc2ccccc21"
> 195 µM (not active)

State the recorded EC50 for this entry: CCOC(=O)C1CCN(C(=O)CCS(=O)(=O)c2ccc3c(c2)CC(C)N3C(=O)CC)CC1 (configuration not stated)
> 195 µM (not active)

So what's the measured EC50 for this one? CC(OC(=O)CN1C(=O)c2ccccc2C1=O)C(=O)NC1CCCCC1C (configuration not stated)
> 195 µM (not active)

# query: EC50 of entry O=C(Nc1ccccc1Cl)/C(Cl)=C(\Cl)[S+]([O-])c1ccccc1 (configuration not stated)
3.56 µM (active)

Bench note: what EC50 did "Cc1ccc(C(=O)CSc2cnc3ccccc3n2)cc1C" show?
4.3 µM (active)

Endpoint output: EC50 of "CCOC(=O)c1c(NC(=O)c2ccccc2)sc2c(O)c(CN(CC)CC)ccc12" . Value?
> 195 µM (not active)

Name the reported EC50 value associated with the molecule CCCC(NC(=O)COc1cc2c(c3oc(=O)cc(C)c13)CCC(C)(C)O2)C(=O)O (configuration not stated)
> 195 µM (not active)

State the recorded EC50 for this entry: "O=C(N1CCOCC1)C12CCC3CC(CC(C3)C1)C2"
> 195 µM (not active)

Tell me the measured EC50 of "Cc1cc(Nc2cccc(Cl)c2)nc(-c2ccccc2O)n1" , please.
> 195 µM (not active)

I'd like to know its EC50. The molecule in question is "COc1ccc2cc3c(N)nn(C(=O)Cc4c[nH]c5ccccc45)c3nc2c1"
0.269 µM (active)

Fill blank: measured EC50 of the molecule "COc1cccc(NC(=O)Nc2nnc(Cc3ccccc3F)s2)c1" is ____.
> 195 µM (not active)

Given the molecule "COc1ccccc1Nc1ccc2nonc2c1[N+](=O)[O-]" , what is its reported EC50?
> 195 µM (not active)

Report EC50 for "O=C(Nc1ccccc1)OCCOc1ccccc1" please.
> 195 µM (not active)

---

biological target: UniProt P00735; assay: thrombin inhibition, dose response, biochemical, fluorescence polarization, uHTS hits (AID 602369); type: functional
Calls of active or inactive are those of the source.
Pick one and only one: active, inactive

Hi, sorry to bother you, what did the test record for C(=C\c1ccco1)/C1=NN(c2ccccc2)C(c2ccco2)C1 (centres undefined) ?
active

// return assay outcome for "NS(=O)(=O)c1ccc(NC(=O)c2cccc(N3C(=O)c4ccccc4C3=O)c2)cc1"
inactive

Status in this test for "Cc1cc(C)cc(-n2cccc2/C=C2/C(=N)N3C(=NC2=O)SN=C3S(C)(=O)=O)c1" ?
active

For "Cc1ccc(-n2cccc2/C=C2/C(=N)N3C(=NC2=O)SN=C3S(C)(=O)=O)cc1" , which call appears in the assay record?
active
